Hey, just so you know, these numbers are from the Immune Epitope Database (IEDB).

- tested system: HLA-A*02:01
- assay summary: IEDB peptide-MHC binding, purified MHC/competitive/fluorescence; filed as Kd, often an IC50 or EC50 that approximates it; bounds were set here for any values at or beyond the usual limits of such assays
- condition info: source organism: Mycobacterium tuberculosis variant bovis BCG str. Pasteur 1173P2
reported property: Kd

# return recorded Kd for entry KPIPHRTVL
≥ 20 µM

====

- tested system: HLA-C*04:01
- assay summary: IEDB peptide-MHC binding, purified MHC/competitive/fluorescence; filed as Kd, often an IC50 or EC50 that approximates it; bounds were set here for any values at or beyond the usual limits of such assays
- condition info: source organism: Mycobacterium tuberculosis str. Haarlem
pKd: −log10 of the molar value.
reported property: pKd

Determine its reported pKd: YTPEQWWPF
≤ 5.30

====

- tested system: HLA-A*03:01
- assay summary: IEDB peptide-MHC binding, purified MHC/direct/fluorescence; filed as Kd, often an IC50 or EC50 that approximates it; bounds were set here for any values at or beyond the usual limits of such assays
- condition info: source organism: Escherichia coli O157:H7 str. EC869
pKd: −log10 of the molar value.
reported property: pKd

Indicate its recorded pKd; the sequence in question is YGSWFGLIY
≤ 4.70

====

- tested system: HLA-A*02:02
- assay summary: IEDB peptide-MHC binding, purified MHC/competitive/radioactivity; filed as Kd, often an IC50 or EC50 that approximates it; bounds were set here for any values at or beyond the usual limits of such assays
- condition info: source organism: Trypanosoma cruzi
reported property: pKd
Hey, just a heads up that pKd is the negative log base 10 of the concentration in molar.

Identify pKd associated with the sequence GLLLLLLLLG
6.34

====

- tested system: HLA-A*03:01
- assay summary: IEDB peptide-MHC binding, purified MHC/direct/fluorescence; filed as Kd, often an IC50 or EC50 that approximates it; bounds were set here for any values at or beyond the usual limits of such assays
- condition info: source organism: Vibrio parahaemolyticus
reported property: Kd (µM)
Give the quantity in µM, number only.

Note down Kd recorded for IRSCWRYRK
7.86

====

- tested system: HLA-A*01:01
- assay summary: IEDB peptide-MHC binding, purified MHC/competitive/fluorescence; filed as Kd, often an IC50 or EC50 that approximates it; bounds were set here for any values at or beyond the usual limits of such assays
- condition info: source organism: Escherichia coli 536
reported property: Kd (µM)
Report as a plain number; the unit µM is understood.

# return Kd of AVASLLDEY (system: HLA-A*01:01)
0.721

====

- tested system: HLA-B*07:02
- assay summary: IEDB peptide-MHC binding, purified MHC/competitive/fluorescence; bounds were set here for any values at or beyond the usual limits of such assays
- condition info: source organism: Influenza A virus (A/Victoria/1968(H3N2))
pIC50: −log10 of the molar value.
reported property: pIC50

Provide only the value of recorded pIC50 for LKNDLLENLQ
≤ 3.31

====

- tested system: HLA-B*40:02
- assay summary: IEDB peptide-MHC binding, purified MHC/competitive/radioactivity; filed as Kd, often an IC50 or EC50 that approximates it; bounds were set here for any values at or beyond the usual limits of such assays
- condition info: source organism: Mammarenavirus choriomeningitidis
reported property: Kd (nM)
Your answer should be a plain number; it is taken to be in nM.

Return Kd (reported value) for this sequence: ADYLSCSHF
254

====

- tested system: HLA-B*58:01
- assay summary: IEDB peptide-MHC binding, purified MHC/direct/fluorescence; filed as Kd, often an IC50 or EC50 that approximates it; bounds were set here for any values at or beyond the usual limits of such assays
- condition info: source organism: Reston ebolavirus - Reston
reported property: Kd

Answer with the recorded Kd for the sequence listed here: SKLRALLTL
≥ 20 µM

====

- tested system: HLA-A*24:03
- assay summary: IEDB peptide-MHC binding, purified MHC/direct/fluorescence; filed as Kd, often an IC50 or EC50 that approximates it; bounds were set here for any values at or beyond the usual limits of such assays
- condition info: source organism: Orthohantavirus negraense
pKd: −log10 of the molar value.
reported property: pKd

# lookup: HLA-A*24:03 pKd, key = SLLFREVWK
≤ 4.70

====

- tested system: HLA-A*23:01
- assay summary: IEDB peptide-MHC binding, purified MHC/competitive/radioactivity; filed as Kd, often an IC50 or EC50 that approximates it; bounds were set here for any values at or beyond the usual limits of such assays
- condition info: source organism: SARS coronavirus Tor2
pKd: −log10 of the molar value.
Rule: pKd under 7 gives 0 (no), otherwise 1 (yes).

Here's what some known entries look like.
- seq: "LKEPCPSGTY"
  group: "0 (no)"
- seq: "FTERSDKSY"
  group: "0 (no)"
- seq: "AFLPFTLGI"
  group: "0 (no)"

Textbook exercise: given the entry IYNEKVAGF , state whether its pKd is greater than or equal to 7.
0 (no)

Entry LTKHPNQEY : is its pKd no less than 7?
0 (no)

State whether the measured pKd reaches 7, counting equality as reaching it, for LYIIKLVFL
1 (yes)

Form field: pKd at least 7? Entry: NKDGFLYVY
0 (no)

Quick check, pKd >= 7? PFVVSTGYHF
1 (yes)

API: above_or_equal(metric=pKd, cutoff=7) for item LFCLLNRYF
0 (no)

Record LFFFVYENAF ; criterion: pKd no lower than 7. Met?
1 (yes)

API: above_or_equal(metric=pKd, cutoff=7) for item NTCDGNTFTY
0 (no)

Can PVDEYITTY be said to have pKd at or above 7?
0 (no)

Identify whether the reported pKd of the following sequence is 7 or greater: YYFMKFRRVF
1 (yes)

====

- tested system: HLA-B*07:02
- assay summary: IEDB peptide-MHC binding, purified MHC/direct/fluorescence; filed as Kd, often an IC50 or EC50 that approximates it; bounds were set here for any values at or beyond the usual limits of such assays
- condition info: source organism: Cryptosporidium parvum
reported property: Kd

For the sequence NTSTCFQEY , report Kd.
≥ 20 µM

====

Readings of pKd for the listed sequences
- tested system: HLA-B*18:01
- assay summary: IEDB peptide-MHC binding, purified MHC/direct/fluorescence; filed as Kd, often an IC50 or EC50 that approximates it; bounds were set here for any values at or beyond the usual limits of such assays
- condition info: source organism: Mycobacterium tuberculosis
pKd: −log10 of the molar value.

- seq: "SPRSRNRSF"
  tested system: "HLA-B*18:01"
  pKd: "≤ 4.70"
- seq: "QVFKGVVIR"
  tested system: "HLA-B*18:01"
  pKd: "≤ 4.70"

As a next step, examine the sequence that follows.
Fill: pKd (HLA-B*18:01) for this sequence APAKKAAPA
≤ 4.70

====

- tested system: HLA-B*07:02
- assay summary: IEDB peptide-MHC binding, purified MHC/competitive/fluorescence; filed as Kd, often an IC50 or EC50 that approximates it; bounds were set here for any values at or beyond the usual limits of such assays
- condition info: source organism: Influenza A virus (A/Harbin/1/1988(H1N2))
reported property: Kd (nM)
// units = nM; emit number, no label

Indicate the recorded Kd value for this sequence: LPFQNVHPV
161

====

- tested system: HLA-B*15:01
- assay summary: IEDB peptide-MHC binding, purified MHC/competitive/fluorescence; bounds were set here for any values at or beyond the usual limits of such assays
- condition info: source organism: Zaire ebolavirus
Some sequences, each annotated with its measured pIC50.
Scale: negative log10 of molar concentration, which is what pIC50 denotes.

Here is how some sequences turned out for pIC50.
- seq: "SQGREAAVS"
  pIC50: 4.57
- seq: "IALGVATAH"
  pIC50: 4.21

Now let's try a different one.
Recall and state the measured pIC50 for LMLCLHHAY .
4.65

====

- tested system: HLA-B*15:09
- assay summary: IEDB peptide-MHC binding, purified MHC/direct/fluorescence; filed as Kd, often an IC50 or EC50 that approximates it; bounds were set here for any values at or beyond the usual limits of such assays
- condition info: source organism: Mycobacterium tuberculosis str. Haarlem
reported property: Kd

Report Kd under test system HLA-B*15:09 for LPAEVRAAF .
≥ 20 µM

====

- tested system: HLA-A*02:02
- assay summary: IEDB peptide-MHC binding, purified MHC/competitive/radioactivity; filed as Kd, often an IC50 or EC50 that approximates it; bounds were set here for any values at or beyond the usual limits of such assays
- condition info: source organism: Homo sapiens
reported property: pKd
Scale explanation: pKd corresponds to minus log10 of a concentration expressed in moles per litre.

Dear colleague, please send me the reported pKd for KLEEEQIIL when you can.
7.13

====

- tested system: HLA-B*08:02
- assay summary: IEDB peptide-MHC binding, purified MHC/direct/fluorescence; filed as Kd, often an IC50 or EC50 that approximates it; bounds were set here for any values at or beyond the usual limits of such assays
- condition info: source organism: Ravn virus - Ravn, Kenya, 1987
reported property: Kd

Determine reported Kd for IHLDKGGQF ; test system: HLA-B*08:02.
≥ 20 µM
